Origin of measurements: the supplement of paper PMC11208160

ASSAY PROTOCOL: recombinant UMI read abundance after kanamycin selection (control-corrected) (log10(CPM+1)); higher = more efficient recombination; extreme values may be limits of the assay; sequences stand for … in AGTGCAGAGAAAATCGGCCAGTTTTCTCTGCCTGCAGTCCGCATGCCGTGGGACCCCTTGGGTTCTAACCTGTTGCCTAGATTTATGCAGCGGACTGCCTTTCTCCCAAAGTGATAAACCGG…AGGTTGGTTTCACT; site = the 11-nt donor
Attribute: recombinant UMI read abundance (log10)
A bare number is all that is needed in reply.

Please review the entries below; each comes with its answer.
> print(dat)
                              item.sequence                           assay.readout  value.reported
1  TAATGGGCATGGACCGGTTTTCCCGGTAATCCGTATTTGGG (site TAATGCGCTCC)  recombinant UMI read abundance (log10)          0.0166
2  CACGGCCCATGGACCGGTTTTCCCGGTAATCCGTATTTGTT (site CACGACCCTAA)  recombinant UMI read abundance (log10)           0.652
3  TAGCCGGCATGGACCGGTTTTCCCGGTAATCCGTATTTGGC (site TTGCCGGCTGC)  recombinant UMI read abundance (log10)               0

Q: Report recombinant UMI read abundance (log10) for TCCTTCGCATGGACCGGTTTTCCCGGTAATCCGTATTTGCT (site GATCCACCTTC) please.
A: 0.0105

Q: Here is the next sequence: CATGGCCCATGGACCGGTTTTCCCGGTAATCCGTATTTGTT (site CATGGCCCTAA)
A: 0.00575

* * *

ASSAY PROTOCOL: recombinant barcode read abundance after kanamycin selection (control-corrected) (log10(CPM+1)); higher = more efficient recombination; sequences stand for … in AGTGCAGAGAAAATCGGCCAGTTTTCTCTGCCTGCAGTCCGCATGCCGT…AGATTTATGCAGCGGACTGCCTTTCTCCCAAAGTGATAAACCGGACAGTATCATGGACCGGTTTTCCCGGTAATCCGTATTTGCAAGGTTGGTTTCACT; site = the 11-nt target
Please use Satisfied whenever recombinant barcode read abundance (log10) is not below 0.1, and Not satisfied whenever it is.

For orientation, consider the following solved cases.
> print(dat)
                              item.sequence  label.class
1  GTGAAGCCTTGGGTTCTAACCTGTTGCCT (site GTGAAGCCTAG)    Satisfied
2  GGTGGGTCTTGGGTTCTAACCTGTTGCCT (site GGTGGGTCTAA)    Satisfied
3  AGGCCCACTTGGGTTCTAACCTGTTGCTC (site AGGCCCACTGA)    Satisfied
4  AGTCTAGCTTGGGTTCTAACCTGTTGCGG (site AGTCTAGCTCC)    Satisfied

Q: Identify whether the reported recombinant barcode read abundance (log10) of the following sequence is 0.1 or greater: ATCCACCCTTGGGTTCTAACCTGTTGCCT (site ATCCATCCTAG)
A: Not satisfied

Q: Here is the next sequence: ACCAACACTTGGGTTCTAACCTGTTGCTT (site ACCAACACTAA)
A: Satisfied

Q: Here is the next sequence: GAGCCGACTTGGGTTCTAACCTGTTGCAG (site TAGCCGGCTCT)
A: Not satisfied

Q: Here is the next sequence: TCACCTGCTTGGGTTCTAACCTGTTGCCT (site TCACGTGCTAG)
A: Satisfied

Q: Here is the next sequence: CGCCGAACTTGGGTTCTAACCTGTTGCCT (site AGCCGAACTAG)
A: Not satisfied

Q: Here is the next sequence: ATAGGGACTTGGGTTCTAACCTGTTGCTA (site ATATGGACTTA)
A: Satisfied
